# experimental-system: HA-GST-Rheb (GTP-γ-S loaded) activating mTORC1 (Homo sapiens (Human))
# Sequence (Q15382 1-181): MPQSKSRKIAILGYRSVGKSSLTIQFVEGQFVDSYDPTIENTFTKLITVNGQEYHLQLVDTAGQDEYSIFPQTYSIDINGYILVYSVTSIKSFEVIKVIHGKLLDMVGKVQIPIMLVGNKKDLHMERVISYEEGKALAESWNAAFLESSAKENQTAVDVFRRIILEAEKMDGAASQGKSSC
# measurement-description: Rheb-dependent in vitro kinase assay (Rheb-IVK; LanthaScreen or Western readout)
# Format: biochemical
# experimental-context: Rheb-dependent in vitro kinase assay; read-out: IVK IC50
reported-metric: IC50

>  <compound>
OCc1nc2c(Oc3ccccc3Cl)cccc2n1Cc1nc[nH]n1

>  <IC50>
> 100 µM

$$$$
>  <compound>
OC1CC(COc2c(Cl)c(Cl)cc3c2nc2n3COC2)CC1O (centres unmarked)

>  <IC50>
10 to 100 µM

$$$$
>  <compound>
O=C(O)Cn1c(-c2ccnc3[nH]ccc23)nc2c(Sc3ccc(Cl)cc3)c(Cl)ccc21

>  <IC50>
> 100 µM

$$$$
>  <compound>
OCc1cc2c(Oc3cccc(Cl)c3)cccc2[nH]1

>  <IC50>
100 to 300 µM

$$$$

Please examine the following record next.
GET /value?item= CC(=O)N[C@@H]1CCCC[C@@H]1COc1c(Cl)c(Cl)cc2[nH]c(CO)nc12 (racemic) &field=IC50 returns 10 to 100 µM
